Overview of recorded pEC50 for various compounds
target: CNR1 (CB1) (Homo sapiens (Human), UniProt P21554); assay: Presto-Tango β-arrestin recruitment assay, CNR1; settings: HTLA cells
pEC50: −log10 of the molar value.
parameterMeasured: pEC50

compound | reportedValue
CC/C=C\C/C=C\C/C=C\CC1OC1C/C=C\C/C=C\CCC(=O)NCCO (stereo not shown) [10,11-EDP-EA, reference compound] | 9.37
CC/C=C\C/C=C\C/C=C\CC1OC1C/C=C\C/C=C\CCC(=O)NC1CC1 (stereo not shown) | 10.52
CC/C=C\C/C=C\C/C=C\CC1OC1C/C=C\C/C=C\CCC(=O)NC(C)CO (stereo not shown) | 10.15
CC/C=C\C/C=C\C/C=C\CC1OC1C/C=C\C/C=C\CCC(=O)NCCCO (stereo not shown) | 9.72

====

tested on: 143B cells; assay: Scratch (wound migration) assay in 143B cells; format: cell-based
parameterMeasured: restriction in wound migration as compared to the control

compound | reportedValue
CC/C=C\C/C=C\C/C=C\CC1OC1C/C=C\C/C=C\CCC(=O)NCCO (stereo not shown) [10,11-EDP-EA, reference compound] | 1-1.9 times
CC/C=C\C/C=C\C/C=C\CC1OC1C/C=C\C/C=C\CCC(=O)NC(C)CO (stereo not shown) | 1-3.9 times
CC/C=C\C/C=C\C/C=C\CC1OC1C/C=C\C/C=C\CCC(=O)NCCCO (stereo not shown) | 1-1.47 times

====

The entries below are paired with their reported EC50.
biological target: UniProt:P34972; test: Presto-Tango β-arrestin recruitment assay, CNR2; settings: HTLA cells

molecule | EC50 [nM]
CC/C=C\C/C=C\C/C=C\CC1OC1C/C=C\C/C=C\CCC(=O)NCCO (stereo not shown) [10,11-EDP-EA, reference compound] | 22.5
CC/C=C\C/C=C\C/C=C\CC1OC1C/C=C\C/C=C\CCC(=O)NCCCO (stereo not shown) [10,11-EDP-NA] | 7.3
CC/C=C\C/C=C\C/C=C\CC1OC1C/C=C\C/C=C\CCC(=O)NC(C)CO (stereo not shown) [10,11-EDP-IA] | 0.08
CC/C=C\C/C=C\C/C=C\CC1OC1C/C=C\C/C=C\CCC(=O)NC1CC1 (stereo not shown) [10,11-EDP-CA] | 0.46

====

Biological target: Fatty acid amide hydrolase (FAAH) (Sus scrofa (Pig), UniProt Q9TUI8)
Sequence (Q9TUI8 whole entry): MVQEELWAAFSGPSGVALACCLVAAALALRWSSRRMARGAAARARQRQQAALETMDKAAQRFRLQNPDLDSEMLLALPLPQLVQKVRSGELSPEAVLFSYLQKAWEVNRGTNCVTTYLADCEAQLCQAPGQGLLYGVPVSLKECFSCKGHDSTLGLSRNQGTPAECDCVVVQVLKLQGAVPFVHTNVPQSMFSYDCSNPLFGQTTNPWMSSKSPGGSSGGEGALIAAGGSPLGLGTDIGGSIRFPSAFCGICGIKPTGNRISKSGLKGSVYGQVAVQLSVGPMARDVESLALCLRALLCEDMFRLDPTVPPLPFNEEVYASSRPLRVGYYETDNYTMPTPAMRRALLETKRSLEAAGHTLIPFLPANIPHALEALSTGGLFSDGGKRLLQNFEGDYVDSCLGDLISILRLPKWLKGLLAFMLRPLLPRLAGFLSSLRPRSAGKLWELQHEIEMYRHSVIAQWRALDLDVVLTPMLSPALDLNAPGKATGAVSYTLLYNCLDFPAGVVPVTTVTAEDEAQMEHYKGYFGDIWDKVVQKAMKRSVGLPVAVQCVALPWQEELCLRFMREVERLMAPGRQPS
Test: Susceptibility to FAAH hydrolysis in pig brain membrane preparations
Details: pig forebrain membranes, amide at 20 μM, 40 min
Procedure: Fatty acid amide hydrolase (FAAH) is a ubiquitously expressed protein in various mammals and the sequence of the protein has shown to be highly conserved in humans, mouse and pig. […] The supernatant was collected and analyzed via LC-MS/MS as outlined below. The products of hydrolysis were measured by LC-MS/MS as indicated in materials and methods section.
# key: entry, value: rate of hydrolysis
parameterMeasured: rate of hydrolysis

compound | reportedValue
CC/C=C\C/C=C\C/C=C\CC1OC1C/C=C\C/C=C\CCC(=O)NCCO (stereo not shown) [10,11-EDP-EA, reference compound] | 30.0±0.3 pmol min^−1 mg protein^−1
CC/C=C\C/C=C\C/C=C\CC1OC1C/C=C\C/C=C\CCC(=O)NC1CC1 (stereo not shown) | 5.17±0.06 pmol min^−1 mg protein^−1
CC/C=C\C/C=C\C/C=C\CC1OC1C/C=C\C/C=C\CCC(=O)NC(C)CO (stereo not shown) | 0.99±0.04 pmol min^−1 mg protein^−1
CCC1OC1C/C=C\C/C=C\C/C=C\C/C=C\C/C=C\CCC(=O)NCCO (stereo not shown) | 150 pmol min^−1 mg protein^−1
